Test system: NCI-H226 lung
Assay: NCI-60 one-dose screen, 48 h
Details: 10 µM unless noted
The panel holds about 83,000 compounds, 20% with a hit somewhere; the sample as a whole holds those more often. Active and inactive are the calls of the source. How the source made its calls: active means growth percent below 10; inactive means the rest.
Respond only with the outcome that fits, drawn from active, inactive

compound: COc1ccc(NCc2cn(-c3ccc(C(=O)O)cc3)nc2-c2ccc(C(=O)O)cc2)cc1C(F)(F)F
classification: inactive

Prompt: Tell me the recorded outcome of this test for Cc1cc(NN=C(c2ccc(O)cc2)c2ccc(O)cc2)c([N+](=O)[O-])cc1[N+](=O)[O-] .
Completion: inactive

Prompt: And CCN(CC)c1ccc(/C=C/C=C2\NC(=O)NC2=O)cc1 ?
Completion: inactive

Prompt: And COc1cc(OC)c(/C=C/C(=O)c2c(N)cc(OC)cc2OC)c(OC)c1 ?
Completion: inactive

Prompt: And O=C(CCCSc1nc(-c2ccccc2)cc(-c2ccccc2)n1)NO ?
Completion: active

Prompt: And CCCCCn1sc(=O)n(Cc2ccc(CNC(=O)OCc3ccc4cccc(O)c4n3)cc2)c1=O ?
Completion: inactive

Prompt: And CCN(CC)c1ccc2cc(C(Nc3ccc(Br)c(C(F)(F)F)c3)c3nnnn3C(C)(C)C)c(=O)oc2c1 (stereo not given) ?
Completion: inactive

Prompt: And COc1cc(NCc2cn(-c3ccc(C(=O)O)cc3)nc2-c2ccc(C(=O)O)cc2)cc(OC)c1OC ?
Completion: inactive

Prompt: And Cc1ncc(C(=O)Nc2ccc(CN3CCN(C)CC3)c(C(F)(F)F)c2)cc1C#Cc1c(N)ncc2ccc(C#N)cc12 ?
Completion: inactive

Prompt: And COc1ccc(CC(C#N)c2ccc(Cl)cc2)cc1 (stereo not given) ?
Completion: inactive

Prompt: And C[C@]12CCc3c(ccc4cc(O)ccc34)[C@@H]1CC[C@H]2O ?
Completion: inactive

Prompt: And CCCCCn1c(C)cc(/C=C\c2ccc3cc(C)ccc3[n+]2C)c1C ?
Completion: active

Prompt: And CC(=O)CC(=O)SC1=NCCS1 ?
Completion: inactive

Prompt: And CCCCOC(=O)c1c(C)[nH]c(/C=C2\N=C(c3ccc[nH]3)C=C2OC)c1C ?
Completion: active

Prompt: And C=C(CC(=O)OC)C(C)=O ?
Completion: inactive

Prompt: And Cc1ccc(S(=O)(=O)n2cc(C(=O)C(=O)N3CCCCC3)c3ccccc32)cc1 ?
Completion: inactive

Prompt: And O=C(Nc1cccc(C2=NCCN2)c1)c1cccc(C(=O)Nc2cccc(C3=NCCN3)c2)c1 ?
Completion: inactive

Prompt: And O=C(COc1cccc(/C=C2\Oc3ccccc3C2=O)c1)c1ccc([N+](=O)[O-])cc1 ?
Completion: inactive

Prompt: And CCOC(=O)C1=C(C(=O)c2ccc(Br)cc2)C(c2ccc(Br)cc2)NC(=S)N1 (stereo not given) ?
Completion: inactive

Prompt: And C#C[C@]1(O)CC[C@H]2[C@@H]3CC=C4c5nc(N)sc5CC[C@]4(C)[C@H]3CC[C@@]21C ?
Completion: inactive

---

Known growth of a selection of molecules
Tested on: MALME-3M melanoma
Experiment: NCI-60 one-dose screen, 48 h (100 = growth as untreated, 0 = no growth, -100 = all killed)
Details: 10 µM unless noted
About 83,000 compounds went through this panel and 20% of them were active in at least one assay; those are over-represented in the sample as a whole.
Please reply with the bare figure in % and do not write the unit itself.

Consider the reported growth for these molecules:
molecule: CCOC(=O)c1nn(C2CCCCO2)c2ccc(NC(=O)Cn3nnc4ccccc43)cc12 (stereo not given)
tested-target: MALME-3M melanoma
unit-abbrev: %
growth: 105
--
molecule: O=C(O)c1cn(C2CC2)c2cc(N3CCN(Cc4cc(Cl)ccc4O)CC3)c(F)cc2c1=O
tested-target: MALME-3M melanoma
unit-abbrev: %
growth: 80.7

Prompt: Param item = C/C=C/C1OC23CCCCC2C(C#N)(C(=N)O3)C1(C#N)C#N (stereo not given) ; retrieve measured growth.
Completion: 99

Prompt: And Cc1cnc(N)nc1OCCNC(=O)c1cccc(-c2ccc(S(=O)(=O)Nc3ccc4c(c3)N(C(=O)C3CC3)CCC4)cc2)c1 ?
Completion: 120

Prompt: And O=C1CC(c2ccccc2)Cc2nc3ccc(Br)cc3cc21 (stereo not given) ?
Completion: 38.8
